Entry source: patent US20210128511A1

- assay_summary: Ex vivo permeation study, Franz diffusion cell
- Format: in vitro ADME, porcine
- assay_conditions: ex vivo, compared to L-Dipivefrin
observable: permeation

[[record]]
compound = "CCCC(=O)Oc1ccc(C(O)CNC)cc1OC(=O)CCC (stereo not shown)"
endpoint_result = "effective permeation"

[[record]]
compound = "CNCC(O)c1ccc(OC(=O)C(C)C)c(OC(=O)C(C)C)c1 (stereo not shown)"
endpoint_result = "effective permeation"

[[record]]
compound = "CCCCC(=O)Oc1ccc(C(O)CNC)cc1OC(=O)CCCC (stereo not shown)"
endpoint_result = "effective permeation"

[[record]]
compound = "CCC(=O)Oc1ccc(C(O)CNC)cc1OC(=O)CC (stereo not shown)"
endpoint_result = "effective permeation"

